Each entry below carries its recorded pEC50.
TESTED_ON: human thyroid receptor beta ligand-binding domain (THR-beta) (Homo sapiens, UniProt P10828)
Sequence (P10828 217-461 limits assumed): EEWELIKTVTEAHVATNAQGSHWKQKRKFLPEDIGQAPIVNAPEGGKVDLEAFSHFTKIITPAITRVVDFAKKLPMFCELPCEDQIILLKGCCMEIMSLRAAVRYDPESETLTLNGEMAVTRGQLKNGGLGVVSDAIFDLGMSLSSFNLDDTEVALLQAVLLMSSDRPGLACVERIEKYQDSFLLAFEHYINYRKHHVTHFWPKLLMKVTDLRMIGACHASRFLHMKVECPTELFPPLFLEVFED
PROCEDURE_DETAILS: THR Biochemical Assay (Assay 1): TR-FRET thyroid receptor beta coactivator assay
SETTINGS: TR-FRET SRC2-2 coactivator recruitment, GST-tagged THR-beta LBD 1 nM, 1 hr at rt; read-out: Assay 1 (EC50, THR-beta agonist activity)
pEC50: −log10 of the molar value.

COMPOUND	pEC50
CC(C)n1cc(Oc2c(Cl)cc(-n3nc(N)c(=O)[nH]c3=O)cc2Cl)cc(Cl)c1=O [Example 23]	6.60 to 7.30
Cc1cc(-n2nc(N)c(=O)[nH]c2=O)cc(C)c1Oc1c[nH]c(=O)c(C(C)C)c1 [Compound 9]	6.60 to 7.30
CC(C)c1cc(Oc2c(Cl)cc(-c3nn(C)c(=O)[nH]c3=O)cc2Cl)c[nH]c1=O [Compound 10]	6.60 to 7.30
CC(C)n1cc(Oc2c(Cl)cc(-n3nc(C#N)c(=O)[nH]c3=O)cc2Cl)ccc1=O [Compound 7]	> 7.30
CC1CCc2c(Oc3c(Cl)cc(-n4nc(N)c(=O)[nH]c4=O)cc3Cl)ccc(=O)n21 (centres unmarked) [Example 36]	> 7.30
CC(C)n1cc(Oc2c(Cl)cc(-n3nc(N)c(=O)[nH]c3=O)cc2Cl)ccc1=O [Compound 8]	6.60 to 7.30
CC1CCc2c(Oc3c(Cl)cc(-n4nc(N)c(=O)[nH]c4=O)cc3Cl)c[nH]c(=O)c21 (centres unmarked) [Example 15]	6.00 to 6.60
CN(C)c1cc(Oc2c(Cl)cc(-n3nc(N)c(=O)[nH]c3=O)cc2Cl)c[nH]c1=O [Compound 13]	6.00 to 6.60
CC1CCc2c(Oc3c(Cl)cc(-n4nc(N)c(=O)[nH]c4=O)cc3Cl)ccc(=O)n21 (single isomer, unassigned) [Example 37]	> 7.30
CC(C)c1cc(Oc2c(Cl)cc(NC(=O)c3noc(=O)[nH]3)cc2Cl)c[nH]c1=O [Compound 5]	> 7.30
CC(C)c1cc(Oc2c(Cl)cc(-n3nc(N)c(=O)[nH]c3=O)cc2Cl)c[nH]c1=O [Compound 1]	> 7.30
CC1CCc2c(Oc3c(Cl)cc(-n4nc(N)c(=O)[nH]c4=O)cc3Cl)ccc(=O)n21 (single isomer, unassigned) [Example 38]	6.60 to 7.30
CC(C)n1cc(Oc2c(Cl)cc(NC(=O)c3noc(=O)[nH]3)cc2Cl)ccc1=O [Compound 6]	6.60 to 7.30
Cc1cc(Oc2c(Cl)cc(-n3nc(N)c(=O)[nH]c3=O)cc2Cl)cn(C(C)C)c1=O [Example 19]	> 7.30
CC(C)n1cc(Oc2c(Cl)cc(-n3nc(N)c(=O)[nH]c3=O)cc2Cl)cc(F)c1=O [Example 22]	6.60 to 7.30
Cc1cc(-n2nc(N)c(=O)[nH]c2=O)cc(C)c1Cc1c[nH]c(=O)c(C(C)C)c1 [Example 33]	6.00 to 6.60
Nc1nn(-c2cc(Cl)c(Oc3ccc(=O)n(C4CC4)c3)c(Cl)c2)c(=O)[nH]c1=O [Example 31]	6.60 to 7.30
Nc1nn(-c2cc(Cl)c(Oc3ccc(=O)n(C4CCC4)c3)c(Cl)c2)c(=O)[nH]c1=O [Example 30]	> 7.30
Nc1nn(-c2cc(Cl)c(Oc3c[nH]c(=O)c(C(=O)NC4CC(F)(F)C4)c3)c(Cl)c2)c(=O)[nH]c1=O [Example 27]	6.00 to 6.60
CC(C)c1cc(Oc2c(Cl)cc(-n3ncc(=O)[nH]c3=O)cc2Cl)c[nH]c1=O [Compound 3]	6.60 to 7.30

---

Each entry below carries its recorded pEC50.
TESTED_ON: human thyroid receptor beta ligand-binding domain (THR-beta) (Homo sapiens, UniProt P10828)
PROCEDURE_DETAILS: THR Biochemical Assay (Assay 1): TR-FRET thyroid receptor beta coactivator assay
SETTINGS: TR-FRET SRC2-2 coactivator recruitment, GST-tagged THR-beta LBD 1 nM, 1 hr at rt; read-out: Assay 1 (EC50, THR-beta agonist activity)
pEC50: −log10 of the molar value.

MOLECULE	pEC50
Nc1nn(-c2cc(Cl)c(Oc3c[nH]c(=O)c(C4CCC4)c3)c(Cl)c2)c(=O)[nH]c1=O	> 7.30
CC(n1cc(Oc2c(Cl)cc(-n3nc(N)c(=O)[nH]c3=O)cc2Cl)ccc1=O)C(F)(F)F (centres unmarked)	6.60 to 7.30
CC1CCc2c(Oc3c(Cl)cc(-n4nc(C#N)c(=O)[nH]c4=O)cc3Cl)ccc(=O)n21 (centres unmarked)	> 7.30
CC1CCc2c(Oc3c(Cl)cc(-n4nc(C#N)c(=O)[nH]c4=O)cc3Cl)c[nH]c(=O)c21 (centres unmarked)	6.00 to 6.60
Cc1c(Oc2c(Cl)cc(-n3nc(N)c(=O)[nH]c3=O)cc2Cl)c[nH]c(=O)c1C(C)C	> 7.30
CC(C)c1cc(Oc2c(Cl)cc(NC(=O)C(=O)O)cc2Cl)c[nH]c1=O	6.60 to 7.30
CNC(=O)c1cc(Oc2c(Cl)cc(NC(=O)c3noc(=O)[nH]3)cc2Cl)c[nH]c1=O	4.60 to 6.00
CC(C)c1cc(Oc2c(Cl)cc(-n3nc(N)c(=O)[nH]c3=O)cc2Cl)cn(C)c1=O	> 7.30

# credit: patent US11786532B2
